- Tested on: Mycobacterium tuberculosis Erdman (autoluminescent)
- Assay Method Text: Einf, fitted maximum growth inhibition of three-drug combination (fraction); higher = stronger maximal inhibition
- Applied Conditions: in vitro model: cholesterol-high 0.2 mM; time point: constant (~7 days, model-specific)
Some molecules, each annotated with its measured Einf.
Respond using a number only.

CC[C@@H](CO)NCCN[C@@H](CC)CO [ethambutol] + NNC(=O)c1ccncc1 [isoniazid] + CO[C@H]1/C=C/O[C@@]2(C)Oc3c(C)c(O)c4c(O)c(c(/C=N/N5CCN(C)CC5)c(O)c4c3C2=O)NC(=O)/C(C)=C\C=C\[C@H](C)[C@H](O)[C@@H](C)[C@@H](O)[C@@H](C)[C@H](OC(C)=O)[C@@H]1C [rifampicin]	0.915

Problem: Given CC(=O)NC[C@H]1CN(c2ccc(N3CCOCC3)c(F)c2)C(=O)O1 [linezolid] + COc1c(N2C[C@@H]3CCCN[C@@H]3C2)c(F)cc2c(=O)c(C(=O)O)cn(C3CC3)c12 [moxifloxacin] + NC(=O)c1cnccn1 [pyrazinamide] , state its recorded Einf.
Solution: 0.923

Problem: Value lookup for Einf; key = NNC(=O)c1ccncc1 [isoniazid] + COc1c(N2C[C@@H]3CCCN[C@@H]3C2)c(F)cc2c(=O)c(C(=O)O)cn(C3CC3)c12 [moxifloxacin] + NC(=O)c1cnccn1 [pyrazinamide]
Solution: 0.911

Problem: Quick one: Einf for NNC(=O)c1ccncc1 [isoniazid] + CC(=O)NC[C@H]1CN(c2ccc(N3CCOCC3)c(F)c2)C(=O)O1 [linezolid] + NC(=O)c1cnccn1 [pyrazinamide] ?
Solution: 0.893

====

- Test system: Mycobacterium tuberculosis Erdman (autoluminescent)
- Assay Method Text: GRinf, maximum normalised growth rate inhibition (three-drug combination) (unitless (-1 to 1)); higher = less effect (negative = killing)
- Applied Conditions: in vitro model: butyrate; time point: terminal (~4-5 doublings, model-specific)
Listed below: GRinf values for each entry.
Write the number on its own, no unit after it.

Examples with answers:
COc1nc2ccc(Br)cc2cc1[C@@H](c1ccccc1)[C@@](O)(CCN(C)C)c1cccc2ccccc12 [bedaquiline] + CC[C@@H](CO)NCCN[C@@H](CC)CO [ethambutol] + CC(=O)NC[C@H]1CN(c2ccc(N3CCOCC3)c(F)c2)C(=O)O1 [linezolid]	-0.0521
CC[C@@H](CO)NCCN[C@@H](CC)CO [ethambutol] + COc1c(N2C[C@@H]3CCCN[C@@H]3C2)c(F)cc2c(=O)c(C(=O)O)cn(C3CC3)c12 [moxifloxacin] + CO[C@H]1/C=C/O[C@@]2(C)Oc3c(C)c(O)c4c(O)c(c(/C=N/N5CCN(C6CCCC6)CC5)c(O)c4c3C2=O)NC(=O)/C(C)=C\C=C\[C@H](C)[C@H](O)[C@@H](C)[C@@H](O)[C@@H](C)[C@H](OC(C)=O)[C@@H]1C [rifapentine]	-0.00309
COc1nc2ccc(Br)cc2cc1[C@@H](c1ccccc1)[C@@](O)(CCN(C)C)c1cccc2ccccc12 [bedaquiline] + CC(=O)NC[C@H]1CN(c2ccc(N3CCOCC3)c(F)c2)C(=O)O1 [linezolid] + O=[N+]([O-])c1cn2c(n1)OC[C@@H](OCc1ccc(OC(F)(F)F)cc1)C2 [pretomanid]	-0.0976
NNC(=O)c1ccncc1 [isoniazid] + COc1c(N2C[C@@H]3CCCN[C@@H]3C2)c(F)cc2c(=O)c(C(=O)O)cn(C3CC3)c12 [moxifloxacin] + O=[N+]([O-])c1cn2c(n1)OC[C@@H](OCc1ccc(OC(F)(F)F)cc1)C2 [pretomanid]	-0.0869
CC(C)/N=c1\cc2n(-c3ccc(Cl)cc3)c3ccccc3nc-2cc1Nc1ccc(Cl)cc1 [clofazimine] + NC(=O)c1cnccn1 [pyrazinamide] + CO[C@H]1/C=C/O[C@@]2(C)Oc3c(C)c(O)c4c(O)c(c(/C=N/N5CCN(C6CCCC6)CC5)c(O)c4c3C2=O)NC(=O)/C(C)=C\C=C\[C@H](C)[C@H](O)[C@@H](C)[C@@H](O)[C@@H](C)[C@H](OC(C)=O)[C@@H]1C [rifapentine]	-0.0833
COc1nc2ccc(Br)cc2cc1[C@@H](c1ccccc1)[C@@](O)(CCN(C)C)c1cccc2ccccc12 [bedaquiline] + O=[N+]([O-])c1cn2c(n1)OC[C@@H](OCc1ccc(OC(F)(F)F)cc1)C2 [pretomanid] + NC(=O)c1cnccn1 [pyrazinamide]	-0.539

Kindly review the next compound as well.
Problem: Any idea what GRinf came out for COc1nc2ccc(Br)cc2cc1[C@@H](c1ccccc1)[C@@](O)(CCN(C)C)c1cccc2ccccc12 [bedaquiline] + COc1c(N2C[C@@H]3CCCN[C@@H]3C2)c(F)cc2c(=O)c(C(=O)O)cn(C3CC3)c12 [moxifloxacin] + O=[N+]([O-])c1cn2c(n1)OC[C@@H](OCc1ccc(OC(F)(F)F)cc1)C2 [pretomanid] on Mycobacterium tuberculosis Erdman (autoluminescent)?
Solution: -0.386

====

Listing of recorded GRinf by entry.
- Test system: Mycobacterium tuberculosis Erdman (autoluminescent)
- Assay Method Text: GRinf, maximum normalised growth rate inhibition (unitless (-1 to 1)); higher = less effect (negative = killing)
- Applied Conditions: in vitro model: cholesterol-high 0.2 mM; time point: constant (~7 days, model-specific)
Please state the value as a number alone, without comment.

CC(=O)NC[C@H]1CN(c2ccc(N3CCOCC3)c(F)c2)C(=O)O1 [linezolid] + CO[C@H]1/C=C/O[C@@]2(C)Oc3c(C)c(O)c4c(O)c(c(/C=N/N5CCN(C6CCCC6)CC5)c(O)c4c3C2=O)NC(=O)/C(C)=C\C=C\[C@H](C)[C@H](O)[C@@H](C)[C@@H](O)[C@@H](C)[C@H](OC(C)=O)[C@@H]1C [rifapentine]	-0.499
CC[C@@H](CO)NCCN[C@@H](CC)CO [ethambutol] + NNC(=O)c1ccncc1 [isoniazid]	-0.31

Now let's try a different one.
Problem: Observed GRinf on Mycobacterium tuberculosis Erdman (autoluminescent) for CC(C)/N=c1\cc2n(-c3ccc(Cl)cc3)c3ccccc3nc-2cc1Nc1ccc(Cl)cc1 [clofazimine] + CC[C@@H](CO)NCCN[C@@H](CC)CO [ethambutol] , please.
Solution: -0.666

====

Measured GRinf values are reported for all entries that follow.
- Test system: Mycobacterium tuberculosis Erdman (autoluminescent)
- Assay Method Text: GRinf, maximum normalised growth rate inhibition (three-drug combination) (unitless (-1 to 1)); higher = less effect (negative = killing)
- Applied Conditions: in vitro model: cholesterol-high 0.2 mM; time point: terminal (~4-5 doublings, model-specific)

Worked examples follow.
COc1nc2ccc(Br)cc2cc1[C@@H](c1ccccc1)[C@@](O)(CCN(C)C)c1cccc2ccccc12 [bedaquiline] + CC(C)/N=c1\cc2n(-c3ccc(Cl)cc3)c3ccccc3nc-2cc1Nc1ccc(Cl)cc1 [clofazimine] + CO[C@H]1/C=C/O[C@@]2(C)Oc3c(C)c(O)c4c(O)c(c(/C=N/N5CCN(C6CCCC6)CC5)c(O)c4c3C2=O)NC(=O)/C(C)=C\C=C\[C@H](C)[C@H](O)[C@@H](C)[C@@H](O)[C@@H](C)[C@H](OC(C)=O)[C@@H]1C [rifapentine]	-0.595
CC(C)/N=c1\cc2n(-c3ccc(Cl)cc3)c3ccccc3nc-2cc1Nc1ccc(Cl)cc1 [clofazimine] + NNC(=O)c1ccncc1 [isoniazid] + COc1c(N2C[C@@H]3CCCN[C@@H]3C2)c(F)cc2c(=O)c(C(=O)O)cn(C3CC3)c12 [moxifloxacin]	-0.61

Problem: Please report the recorded GRinf for CC[C@@H](CO)NCCN[C@@H](CC)CO [ethambutol] + COc1c(N2C[C@@H]3CCCN[C@@H]3C2)c(F)cc2c(=O)c(C(=O)O)cn(C3CC3)c12 [moxifloxacin] + NC(=O)c1cnccn1 [pyrazinamide] .
Solution: -0.587

====

- Test system: Mycobacterium tuberculosis Erdman (autoluminescent)
- Assay Method Text: GRinf, maximum normalised growth rate inhibition (unitless (-1 to 1)); higher = less effect (negative = killing)
- Applied Conditions: in vitro model: butyrate; time point: terminal (~4-5 doublings, model-specific)
Observation Type: GRinf
Give your answer as a number; write no unit.

Use these answered entries as a reference point.
NNC(=O)c1ccncc1 [isoniazid] + NC(=O)c1cnccn1 [pyrazinamide]	0.0459
NC(=O)c1cnccn1 [pyrazinamide] + CO[C@H]1/C=C/O[C@@]2(C)Oc3c(C)c(O)c4c(O)c(c(/C=N/N5CCN(C6CCCC6)CC5)c(O)c4c3C2=O)NC(=O)/C(C)=C\C=C\[C@H](C)[C@H](O)[C@@H](C)[C@@H](O)[C@@H](C)[C@H](OC(C)=O)[C@@H]1C [rifapentine]	0.108
CC[C@@H](CO)NCCN[C@@H](CC)CO [ethambutol] + NNC(=O)c1ccncc1 [isoniazid]	-0.109

Problem: Observed GRinf on Mycobacterium tuberculosis Erdman (autoluminescent) for NNC(=O)c1ccncc1 [isoniazid] + CC(=O)NC[C@H]1CN(c2ccc(N3CCOCC3)c(F)c2)C(=O)O1 [linezolid] , please.
Solution: 0.0109

This collection of values is drawn from the supplement of paper PMC8617591.
